Exercise: state measured IC50 for each of the compounds provided.
Molecular target: Recombinant human LTC4 synthase (Homo sapiens)
Assay: LTC4 synthase assay (conversion of LTA4 methyl ester to LTC4 methyl ester, HPLC)
Conditions: biological test described above; PBS pH 7.4 with 5 mM GSH, substrate LTA4 methyl ester
Give the value, in units of nM, as a plain number.

stdin: Given the entry `O=C(O)c1cc(Cc2ccc(NS(=O)(=O)c3cc(C(F)(F)F)cc(C(F)(F)F)c3)c(C(=O)O)c2)ccc1NS(=O)(=O)c1cc(C(F)(F)F)cc(C(F)(F)F)c1` , report its measured IC50.
stdout: 700

stdin: Given the entry `Nc1ccc(Cc2ccc(Nc3ccc(F)cc3)c(C(=O)O)c2)cc1C(=O)O` , report its measured IC50.
stdout: 2800

stdin: Given the entry `CC(=O)Nc1ccc(S(=O)(=O)Nc2ccc(Cc3ccc(NS(=O)(=O)c4ccc(NC(C)=O)c(Cl)c4)c(C(=O)O)c3)cc2C(=O)O)cc1Cl` , report its measured IC50.
stdout: 2800

stdin: Given the entry `O=C(Nc1ccc(Cc2ccc(NC(=O)Nc3c(Cl)cccc3Cl)c(C(=O)O)c2)cc1C(=O)O)Nc1c(Cl)cccc1Cl` , report its measured IC50.
stdout: 5800

stdin: Given the entry `Nc1ccc(Cc2ccc(Nc3ccc(Br)cc3F)c(C(=O)O)c2)cc1C(=O)O` , report its measured IC50.
stdout: 740

stdin: Given the entry `CC(C)Oc1ccc(Nc2ccc(Cc3ccc(N)c(C(=O)O)c3)cc2C(=O)O)cc1` , report its measured IC50.
stdout: 6410

stdin: Given the entry `Nc1ccc(Cc2ccc(Nc3ccc(F)c(Cl)c3)c(C(=O)O)c2)cc1C(=O)O` , report its measured IC50.
stdout: 5700

###

Exercise: state measured pIC50 for each of the molecules provided.
Molecular target: Recombinant human LTC4 synthase (Homo sapiens, UniProt Q16873)
Sequence (Q16873 whole entry): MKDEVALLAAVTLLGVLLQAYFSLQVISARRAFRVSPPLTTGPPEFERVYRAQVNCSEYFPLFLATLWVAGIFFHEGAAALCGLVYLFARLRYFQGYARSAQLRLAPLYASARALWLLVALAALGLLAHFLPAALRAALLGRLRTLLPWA
Experiment: LTC4 synthase assay (conversion of LTA4 methyl ester to LTC4 methyl ester, HPLC)
Details: biological test described above; PBS pH 7.4 with 5 mM GSH, substrate LTA4 methyl ester
Lab note — pIC50 values are minus log10 of concentrations in M.

stdin: Given the entry O=C(Nc1ccccc1F)Nc1ccc(Cc2ccc(NC(=O)Nc3ccccc3F)c(C(=O)O)c2)cc1C(=O)O [Example 57] , report its measured pIC50.
stdout: 5.40

stdin: Given the entry COc1cccc(NC(=O)Nc2ccc(Cc3ccc(NC(=O)Nc4cccc(OC)c4)c(C(=O)O)c3)cc2C(=O)O)c1 [Example 55] , report its measured pIC50.
stdout: 5.74

stdin: Given the entry Cc1ccc(CNc2ccc(Cc3ccc(NCc4ccc(C)cc4)c(C(=O)O)c3)cc2C(=O)O)cc1 [Example 89] , report its measured pIC50.
stdout: 5.47

stdin: Given the entry O=C(O)c1cc(Cc2ccc(NCc3cccc(OCc4ccccc4)c3)c(C(=O)O)c2)ccc1NCc1cccc(OCc2ccccc2)c1 [Example 93] , report its measured pIC50.
stdout: 5.64

stdin: Given the entry O=C(O)c1cc(Cc2ccc(NS(=O)(=O)c3ccccc3C(F)(F)F)c(C(=O)O)c2)ccc1NS(=O)(=O)c1ccccc1C(F)(F)F [Example 69] , report its measured pIC50.
stdout: 5.89

stdin: Given the entry O=C(O)c1ccccc1Nc1ccc(Cc2ccc(Nc3ccccc3C(=O)O)c(C(=O)O)c2)cc1C(=O)O [Example 9] , report its measured pIC50.
stdout: 5.47
